In this section we review reported EC50 values for a set of compounds.
Molecular target: human RXFP1 (Homo sapiens)
Construct: expressed in transfected cells
Sequence (Q9HBX9 1-757): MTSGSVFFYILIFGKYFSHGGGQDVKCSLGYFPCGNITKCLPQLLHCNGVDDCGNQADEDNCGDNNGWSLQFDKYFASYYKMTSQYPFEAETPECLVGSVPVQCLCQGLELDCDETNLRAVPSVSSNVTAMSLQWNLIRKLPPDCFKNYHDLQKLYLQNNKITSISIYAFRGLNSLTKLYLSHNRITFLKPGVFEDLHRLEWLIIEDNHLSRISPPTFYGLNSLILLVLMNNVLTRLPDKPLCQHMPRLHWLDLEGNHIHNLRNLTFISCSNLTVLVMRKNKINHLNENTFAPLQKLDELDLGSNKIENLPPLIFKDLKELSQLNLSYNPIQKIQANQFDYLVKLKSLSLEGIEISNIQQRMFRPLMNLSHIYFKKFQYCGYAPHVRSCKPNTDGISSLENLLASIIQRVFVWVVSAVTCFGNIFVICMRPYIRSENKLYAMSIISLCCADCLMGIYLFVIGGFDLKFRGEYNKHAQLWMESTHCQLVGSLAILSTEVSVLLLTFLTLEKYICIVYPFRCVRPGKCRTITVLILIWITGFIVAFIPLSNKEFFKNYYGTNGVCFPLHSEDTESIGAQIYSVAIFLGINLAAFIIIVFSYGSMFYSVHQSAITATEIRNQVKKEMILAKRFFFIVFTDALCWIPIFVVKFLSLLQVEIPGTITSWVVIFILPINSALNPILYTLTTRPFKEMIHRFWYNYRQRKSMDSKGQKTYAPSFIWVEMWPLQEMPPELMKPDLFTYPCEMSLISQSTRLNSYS
Assay: RXFP1 cAMP assay (hRXFP1 HEK293 cAMP assay, HTRF)
Format: cell-based
Settings: HEK293 cells stably expressing human RXFP1, 30 min at room temperature, read-out: cAMP hRXFP1 HEK293 Assay EC50
MEASURED ATTRIBUTE: EC50 (nM)

1. COc1ccc(-c2cc(C(OC(=O)NC3CCC3)C(F)(F)F)ccc2F)cc1C(=O)N[C@@H]1C2CCC(/C2=C/C2CC2)[C@@H]1C(=O)Nc1ccc(F)c(C(F)(F)F)c1 (some centres unmarked) [compound 221] : 26
2. COc1ccc(-c2cc(S(=O)(=O)NC(C)(C)C)ccc2F)cc1C(=O)N[C@H]1[C@@H](C(=O)N[C@H](C)C2(C)CC2)[C@H]2CC[C@@H]1/C2=C\C1CC1 [compound 957] : 5.3
3. COc1ccc(-c2cc(C(=O)N3CCC(O)CC3)on2)cc1C(=O)N[C@H]1[C@@H](C(=O)Nc2ccc(F)c(C(F)(F)F)c2)[C@H]2CC[C@@H]1/C2=C\C1CC1 [Example 594] : 91.4
4. COc1cc(F)c(F)cc1C(=O)N[C@@H]1C2CCC(/C2=C/c2ccsc2)[C@@H]1C(=O)Nc1ccc(F)c(C(F)(F)F)c1 (some centres unmarked) [compound 36] : 19
5. COc1ccc(C2=NOC3CC(O)CC23)cc1C(=O)N[C@H]1[C@@H](C(=O)Nc2ccc(F)c(C(F)(F)F)c2)[C@H]2CC[C@@H]1/C2=C\C(F)(F)F (some centres unmarked) [compound 543] : 30.5
6. O=C(N[C@H]1[C@@H](C(=O)Nc2ccc(F)c(C(F)(F)F)c2)[C@H]2CC[C@@H]1/C2=C\C1CC1)c1cc(C2=NOC3CC(CO)CC23)cc(F)c1OCCCF (some centres unmarked) [compound 784] : 3.4
7. COc1ccc(C2=NOC3COCC23)cc1C(=O)N[C@H]1[C@@H](C(=O)Nc2ccc(F)c(C(F)(F)F)c2)[C@H]2CC[C@@H]1/C2=C\C1CC1 (some centres unmarked) [Example 417] : 172
8. COc1c(F)cc(C2=NOC3CC(O)(C(F)(F)F)CC23)cc1C(=O)N[C@H]1[C@@H](C(=O)N[C@H](C)C2(C)CC2)[C@H]2CC[C@@H]1/C2=C\c1cnc(C(F)(F)F)s1 (some centres unmarked) [compound 917] : 1.3
9. COc1ccc(C2=NOC3CC(CO)CC23)cc1C(=O)N[C@H]1[C@@H](C(=O)Nc2ccc(F)c(C(F)(F)F)c2)[C@H]2CC[C@@H]1/C2=C\C(F)(F)F (some centres unmarked) [compound 478] : 6.5
10. CCC/C=C1\[C@H]2CC[C@@H]1[C@H](C(=O)Nc1ccc(F)c(C(F)(F)F)c1)[C@@H]2NC(=O)c1cc(C2=NOC3CC(CO)CC23)cc(F)c1OC (some centres unmarked) [compound 793] : 2.2
11. COc1ccc(C2=NOC3CC(CO)CC23)cc1C(=O)N[C@H]1[C@@H](C(=O)Nc2ccc(F)c(C(F)(F)F)c2)[C@H]2CC[C@@H]1/C2=C\c1cncs1 (some centres unmarked) [compound 803] : 3.5
